System: ACHN renal
experiment notes: NCI-60 one-dose screen, 48 h (100 = growth as untreated, 0 = no growth, -100 = all killed)
study conditions: 10 µM unless noted
Protocol: Growth inhibition of the ACHN human tumor cell line is measured as a screen for anti-cancer activity. Cells are grown in 96 well plates and exposed to the test compound for 48 hours. Compounds are tested at a single concentration, which is 10^-5 M for most compounds. The reported endpoint is percent growth (GI% or GIPRCNT), where numbers from 0 - 100% represent growth inhibition, and numbers from -100% - 0 represent cell death. For example, a value of 40 represents 60% growth inhibition. […]
The panel holds about 83,000 compounds, 20% with a hit somewhere; the sample as a whole holds those more often.
Rule: growth below 90% gives 1, anything at or above gives -1.

Below, 10 compounds whose answers are already recorded.
CCN1CCN(c2cc(C)nc(NCc3cc(Nc4ccnc5cc(Cl)ccc45)ccc3F)n2)CC1 :: 1
c1ccc(-c2nc([P+](c3ccccc3)(c3ccccc3)c3ccccc3)c(N3CCOCC3)o2)cc1 :: 1
COc1ccc2c(c1)C(=O)/C(=C/c1cccc(OCC(=O)Nc3nc(C)c(C)s3)c1)O2 :: 1
O=C1Nc2ccccc2/C1=C/c1cn(C(=O)c2ccc(Cl)cc2)c2ccccc12 :: -1
O=C(COc1ccc(/C=C2\Oc3ccccc3C2=O)cc1)Nc1nc2c(s1)CCCC2 :: 1
O=c1c2c3c(sc2n2c(-c4cc(-c5ccccc5)nn4-c4ccccc4)nnc2n1Cc1ccccc1)CCCC3 :: -1
Nc1n[nH]c2cc(F)c([C@@H]3Nc4c(F)cc5[nH]ncc5c4[C@H]4C5CCC(C5)[C@@H]34)cc12 (some centres undefined) :: 1
O=C(NC(CSSCC(NC(=O)c1ccccc1)C(=O)O)C(=O)O)c1ccccc1 (centres undefined) :: -1
CC(=O)c1ccc(NCC(=O)Nc2ccccn2)cc1 :: -1
Cc1ccc(S(=O)(=O)Oc2cc(OS(=O)(=O)c3ccc(C)cc3)cc(OS(=O)(=O)c3ccc(C)cc3)c2)cc1 :: -1

Q) # strict comparison: is reported growth < 90%? input = Clc1cc(Cl)cc(Nc2ccc3cc(OCCCN4CCOCC4)ccc3n2)c1
A) 1

Q) # strict comparison: is reported growth < 90%? input = COc1ccc2[nH]c(O)c(C(=Nc3ccc(N(C)C(=O)CN4CCN(C)CC4)cc3)c3ccccc3)c2c1
A) 1

Q) # strict comparison: is reported growth < 90%? input = Cc1occc1-c1n[nH]c(=S)n1N1C(=O)CSC1=S
A) -1

Q) # strict comparison: is reported growth < 90%? input = CC(=O)O[C@]1(C(C)=O)CCC2C3C[C@H](C)C4=CC(=O)CC[C@]4(C)C3CC[C@@]21C (some centres undefined)
A) -1

Hello, the source for this data is PubChem BioAssay (NCI), in case you need it.
